- Target System: 1-acyl-sn-glycerol-3-phosphate acyltransferase beta (Homo sapiens)
- Sequence (O15120 whole entry): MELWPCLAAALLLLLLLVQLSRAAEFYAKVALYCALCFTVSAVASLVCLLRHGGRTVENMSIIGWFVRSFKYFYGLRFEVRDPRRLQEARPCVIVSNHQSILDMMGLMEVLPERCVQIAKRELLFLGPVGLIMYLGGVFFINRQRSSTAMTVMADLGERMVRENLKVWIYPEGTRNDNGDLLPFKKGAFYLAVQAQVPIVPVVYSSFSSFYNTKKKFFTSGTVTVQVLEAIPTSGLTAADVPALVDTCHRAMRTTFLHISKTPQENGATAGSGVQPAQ
pIC50: −log10 of the molar value.
Can you tell me pIC50 for the items I'm about to list?

What pIC50 value was documented for this molecule, COC(=O)Nc1ccc(Cl)c(-c2nc3ccc(C)cc3n2C)c1 ?
< 4.70

What pIC50 value was documented for this molecule, COC(=O)Nc1ccc(Cl)c(-c2nc3cc(C(=O)O)ccc3o2)c1 ?
< 4.70

What pIC50 value was documented for this molecule, COC(=O)Nc1ccc(Cl)c(-c2nc3cc(O)ccc3o2)c1 ?
< 4.70

What pIC50 value was documented for this molecule, Cc1ccc2oc(-c3cc(NC=O)ccc3Cl)nc2c1 ?
< 5.30

---

Entries with reported IC50 on 1-acyl-sn-glycerol-3-phosphate acyltransferase beta (Homo sapiens, UniProt O15120)

What IC50 value was documented for this molecule, Cc1ccc2oc(-c3cc(NCCCC#N)ccc3Cl)nc2c1 ?
> 5 µM

What IC50 value was documented for this molecule, CC#CC(=O)Nc1ccc(Cl)c(-c2nc3cc(Cl)ccc3o2)c1 ?
> 20 µM

What IC50 value was documented for this molecule, COC(=O)Nc1cccc(-c2nc3cc(C)ccc3o2)c1 ?
> 64 µM

What IC50 value was documented for this molecule, CC#CC(=O)Nc1ccc(Cl)c(-c2nc3cc(C)ccc3o2)c1 ?
> 20 µM

What IC50 value was documented for this molecule, CN(C)CC(=O)Nc1ccc(Cl)c(-c2nc3cc(Cl)ccc3o2)c1 ?
> 5 µM

What IC50 value was documented for this molecule, C#CCCOC(=O)Nc1ccc(Cl)c(-c2nc3cc(Cl)ccc3o2)c1 ?
0.075 µM

Data provenance: ChEMBL document CHEMBL1146819
